# System tested: FAAH (Rattus norvegicus, UniProt P97612)
# Construct: Preparation of Rat Brain Membranes Preparations (FAAH Enzyme Solution); from tissue; host or cells: rat cerebrum (brain membrane preparation)
# Assay: Determination of FAAH inhibitory activity in rat (rat brain membrane preparations, [3H]-anandamide hydrolysis)
# Assay type: biochemical
# Condition details: rat brain membrane preparations; test substance 0.1 nM to 1 μM; read-out: FAAH Inhibition IC50
Kindly state IC50 for each of the entries shown.
Give the quantity in nM, number only.

# input Look up IC50 for this compound: Cn1c(=O)n(C(=O)N2CCC2)c2nc(CCc3ccc(C(F)F)cc3)ncc21
# output 10

# input Fill in: IC50 of COc1cccc(-c2ncc3c(n2)n(C)c(=O)n3C(=O)N2CCC(Cc3ccccc3)CC2)c1 is ___
# output 46

# input What does the record list as IC50 for Cn1c(=O)n(C(=O)N2CCCC2)c2cnc(-c3ccc(C(C)(C)C)cc3)nc21 ?
# output 89

# input Which IC50 value is on record for COCc1ncc2c(n1)n(C)c(=O)n2C(=O)N1CC(c2ccccc2F)C1 ?
# output 37

# input Field request: IC50 | item: Cc1ccc(CCc2ncc3c(n2)n(C(=O)N(C)C)c(=O)n3C)cc1C
# output 11

# input Which value of IC50 has been reported for Cn1c(=O)n(C(=O)N2CCCC2)c2cnc(Cc3cccc(Cl)c3)nc21 in the records?
# output 9

# input Please give the measured IC50 for this compound: COc1cccc(-c2ncc3c(n2)n(C)c(=O)n3C(=O)N(C)CCOc2ccccc2)c1
# output 3

# input # query: IC50 of entry Cn1c(=O)n(C(=O)N2CCCC2)c2nc(CCc3ccc(C(F)(F)F)cc3)ncc21
# output 8

====

# System tested: FAAH (Rattus norvegicus)
# Construct: Preparation of Rat Brain Membranes Preparations (FAAH Enzyme Solution); from tissue; host or cells: rat cerebrum (brain membrane preparation)
# Sequence (P97612 1-579): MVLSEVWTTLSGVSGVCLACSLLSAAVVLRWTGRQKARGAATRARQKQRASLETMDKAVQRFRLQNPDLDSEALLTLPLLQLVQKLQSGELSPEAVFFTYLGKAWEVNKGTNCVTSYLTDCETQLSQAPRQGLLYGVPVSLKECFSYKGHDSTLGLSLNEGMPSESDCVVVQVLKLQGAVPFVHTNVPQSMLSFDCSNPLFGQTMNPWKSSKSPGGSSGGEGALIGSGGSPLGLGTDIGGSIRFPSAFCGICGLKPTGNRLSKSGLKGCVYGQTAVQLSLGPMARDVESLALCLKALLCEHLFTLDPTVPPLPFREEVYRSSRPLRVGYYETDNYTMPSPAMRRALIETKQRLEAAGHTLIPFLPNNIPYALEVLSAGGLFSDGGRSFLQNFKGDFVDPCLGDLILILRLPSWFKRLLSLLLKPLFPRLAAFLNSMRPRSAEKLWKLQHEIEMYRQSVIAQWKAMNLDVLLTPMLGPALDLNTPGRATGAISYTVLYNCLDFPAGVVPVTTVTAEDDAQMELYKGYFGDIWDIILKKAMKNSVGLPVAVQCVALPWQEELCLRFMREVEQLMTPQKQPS
# Assay: Determination of FAAH inhibitory activity in rat (rat brain membrane preparations, [3H]-anandamide hydrolysis)
# Assay type: biochemical
# Condition details: rat brain membrane preparations; 100 nM test substance; read-out: FAAH Inhibition, Inhibition Rate at 100 nM
For each of the compounds below, state its inhibition at 0.1 µM.
# value in %; strip the unit string

# input Data request, read-out inhibition at 0.1 µM, for COc1cccc(-c2ncc3c(n2)n(C)c(=O)n3C(=O)N(C)CCc2ccc(N(C)C)cc2)c1 [Example 113]
# output 103

# input Using the record for Cc1ccc(Cc2ncc3c(n2)n(C)c(=O)n3C(=O)N2CCCC2)cc1 [compound 259] , report its inhibition at 0.1 µM.
# output 95

# input State the recorded inhibition at 0.1 µM for this entry: CCOc1ccc(-c2ncc3c(n2)n(C)c(=O)n3C(=O)N2CCCC2)cn1 [compound 210]
# output 103

# input Give the measured inhibition at 0.1 µM of CN(Cc1ccccc1)C(=O)n1c(=O)n(C)c2nc(-c3ccccc3)ncc21 [Example 34] .
# output 101

====

# System tested: FAAH (Rattus norvegicus)
# Construct: Preparation of Rat Brain Membranes Preparations (FAAH Enzyme Solution); from tissue; host or cells: rat cerebrum (brain membrane preparation)
# Sequence (P97612 1-579): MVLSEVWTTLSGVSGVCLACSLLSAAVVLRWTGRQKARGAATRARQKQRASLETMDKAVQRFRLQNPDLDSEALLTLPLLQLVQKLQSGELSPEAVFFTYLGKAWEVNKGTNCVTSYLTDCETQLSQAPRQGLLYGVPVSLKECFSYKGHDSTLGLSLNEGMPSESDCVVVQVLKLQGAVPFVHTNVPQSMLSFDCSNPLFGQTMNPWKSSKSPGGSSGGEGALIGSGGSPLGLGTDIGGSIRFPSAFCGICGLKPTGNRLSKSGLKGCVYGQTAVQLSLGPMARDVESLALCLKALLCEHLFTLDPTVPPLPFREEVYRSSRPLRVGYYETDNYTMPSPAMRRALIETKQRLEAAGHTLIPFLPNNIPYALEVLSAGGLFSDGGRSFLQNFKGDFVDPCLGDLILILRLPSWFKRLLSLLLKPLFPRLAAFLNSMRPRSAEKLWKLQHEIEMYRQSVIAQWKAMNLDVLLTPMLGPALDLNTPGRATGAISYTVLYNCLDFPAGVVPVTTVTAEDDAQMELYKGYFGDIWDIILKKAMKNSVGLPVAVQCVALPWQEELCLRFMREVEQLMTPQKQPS
# Assay: Determination of FAAH inhibitory activity in rat (rat brain membrane preparations, [3H]-anandamide hydrolysis)
# Format: biochemical
# Condition details: rat brain membrane preparations; test substance 0.1 nM to 1 μM; read-out: FAAH Inhibition IC50
Measure name: pIC50
Note on units: pIC50 is unitless, being -log10 of a concentration expressed in mol/L.

# input Requested read-out: pIC50. Entry: Cc1cc(C)c(CCc2ncc3c(n2)n(C(=O)N(C)C)c(=O)n3C)c(C)c1
# output 7.89

# input Record request: pIC50 value, item Cn1c(=O)n(C(=O)N2CCC2)c2nc(COc3ccccc3OC(F)(F)F)ncc21
# output 7.92

# input Quick one: pIC50 of CN(C)C(=O)n1c(=O)n(C)c2cnc(CCc3ccc(OCC(F)(F)F)cc3)nc21 ?
# output 8.05

# input For CCCc1ccc(CCc2ncc3c(n2)n(C(=O)N2CCC2)c(=O)n3C)cc1 , what is its reported pIC50?
# output 8.00

# input compound: COc1cccc(-c2ncc3c(n2)n(C)c(=O)n3C(=O)N2CCN(Cc3cccc(Cl)c3)CC2)c1 ; wanted: its pIC50
# output 8.00

# input Requested read-out: pIC50. Entry: CN(C)C(=O)n1c(=O)n(C)c2cnc(CCc3ccccc3F)nc21
# output 7.55

# input Please report the recorded pIC50 for Cn1c(=O)n(C(=O)N2CCC2)c2nc(-c3cccc(F)c3)ncc21 .
# output 7.04

# input Given the compound CN(C)C(=O)n1c(=O)n(C)c2cnc(-c3ccc(C(F)F)cc3)nc21 , what is its reported pIC50?
# output 7.02

====

Please provide measured inhibition at 0.1 µM for the entries that follow.
# System tested: FAAH (Rattus norvegicus, UniProt P97612)
# Construct: Preparation of Rat Brain Membranes Preparations (FAAH Enzyme Solution); from tissue; host or cells: rat cerebrum (brain membrane preparation)
# Assay: Determination of FAAH inhibitory activity in rat (rat brain membrane preparations, [3H]-anandamide hydrolysis)
# Assay type: biochemical
# Condition details: rat brain membrane preparations; 100 nM test substance; read-out: FAAH Inhibition, Inhibition Rate at 100 nM
Field: numeric (%). Do not append units.

# input I'd like to know its inhibition at 0.1 µM. The molecule in question is CN(C)C(=O)n1c(=O)n(C)c2cnc(-c3ccc(OCC(F)(F)F)cc3)nc21
# output 88

# input Consider the molecule CCOCc1ncc2c(n1)n(C)c(=O)n2C(=O)N1CC(c2ccc(F)cc2)C1 and give its measured inhibition at 0.1 µM.
# output 107

# input Dear colleague, I am looking for the recorded inhibition at 0.1 µM of the following molecule: Cn1c(=O)n(C(=O)N2CCCC2)c2nc(CCc3ccc(F)cc3)ncc21
# output 100

# input Query: inhibition at 0.1 µM; subject: Cn1c(=O)n(C(=O)N2CCCC2)c2cnc(-c3cc(F)ccc3F)nc21
# output 100

# input Given the entry CCCCc1ncc2c(n1)n(C)c(=O)n2C(=O)N(C)CCc1ccc(Cl)cc1 , report its measured inhibition at 0.1 µM.
# output 102

# input Given the molecule Cc1ccc(/C=C/c2ncc3c(n2)n(C)c(=O)n3C(=O)N2CCCC2)cc1 , what is its reported inhibition at 0.1 µM?
# output 92

# input Endpoint output: inhibition at 0.1 µM of COCc1ncc2c(n1)n(C)c(=O)n2C(=O)N1CC(c2cccc(Cl)c2)C1 . Value?
# output 131

# input Need inhibition at 0.1 µM, item Cn1c(=O)n(C(=O)N2CCCC2)c2nc(-c3cccnc3)ncc21
# output 33

# input Value lookup for inhibition at 0.1 µM; key = Cn1c(=O)n(C(=O)N2CCCC2)c2nc(CCc3cccc(F)c3)ncc21
# output 95

# input Data request, read-out inhibition at 0.1 µM, for COCc1ncc2c(n1)n(C)c(=O)n2C(=O)N1CC(c2cccc(C(F)(F)F)c2)C1
# output 98

# input molecule: CCOCc1ncc2c(n1)n(C)c(=O)n2C(=O)N1CC(c2cccc(F)c2)C1 ; wanted: its inhibition at 0.1 µM
# output 113

# input Return reported inhibition at 0.1 µM; argument: Cc1cc(F)cc(-c2ncc3c(n2)n(C)c(=O)n3C(=O)N2CCCC2)c1
# output 99

# input Requested read-out: inhibition at 0.1 µM. Entry: CCCCc1ncc2c(n1)n(C)c(=O)n2C(=O)N1CCCC1
# output 98

# input Which value of inhibition at 0.1 µM has been reported for Cn1c(=O)n(C(=O)N2CCCC2)c2cnc(-c3ccc(C#N)cc3)nc21 in the records?
# output 101

# input So what does the record say about inhibition at 0.1 µM for COc1ccc(F)c(-c2ncc3c(n2)n(C)c(=O)n3C(=O)N2CCCC2)c1 ?
# output 97

# input Entry CN(C)C(=O)n1c(=O)n(C)c2cnc(CCc3ccc(OC(F)F)cc3)nc21 has what inhibition at 0.1 µM?
# output 79

# input Query (molecule): Cc1cccc(-c2ncc3c(n2)n(C(=O)N2CCCC2)c(=O)n3C)c1 ; field requested: inhibition at 0.1 µM
# output 99

# input Requested read-out: inhibition at 0.1 µM. Entry: CCCCn1c(=O)n(C(=O)N2CCCC2)c2cnc(-c3ccccc3)nc21
# output 99

# input # get_value(readout='inhibition at 0.1 µM', item= COC[C@H]1CCCN1C(=O)n1c(=O)n(C)c2nc(-c3ccccc3)ncc21 )
# output 67

# input Give its inhibition at 0.1 µM value. Item: Cn1c(=O)n(C(=O)N2CCCC2)c2cnc(Cc3c(F)cccc3F)nc21
# output 93

# input Entry under review: COc1ccc(N2CCN(C(=O)n3c(=O)n(C)c4nc(-c5ccccc5)ncc43)CC2)cc1 . Reported inhibition at 0.1 µM?
# output 99

# input Look up inhibition at 0.1 µM: COc1cccc(-c2ncc3c(n2)n(C)c(=O)n3C(=O)N2CC[C@@H](F)C2)c1
# output 90

# input Given the entry CCCOc1ccc(CCc2ncc3c(n2)n(C(=O)N(C)C)c(=O)n3C)cc1 , report its measured inhibition at 0.1 µM.
# output 103

# input Which value of inhibition at 0.1 µM has been reported for CC(C)c1ccc(CCc2ncc3c(n2)n(C(=O)N2CCC2)c(=O)n3C)cc1 in the records?
# output 100

# input Item under review: COCc1ncc2c(n1)n(C)c(=O)n2C(=O)N1CC(c2ccccc2)C1 . Reported inhibition at 0.1 µM?
# output 86

# input Could you tell me which inhibition at 0.1 µM is on file for COc1cccc(-c2ncc3c(n2)n(C)c(=O)n3C(=O)N(C)CCOc2ccc(F)cc2)c1 ?
# output 103

# input Need inhibition at 0.1 µM, item COc1cccc(-c2ncc3c(n2)n(C)c(=O)n3C(=O)N(C)CCc2ccc(C(F)(F)F)cc2)c1
# output 103

# input Name the reported inhibition at 0.1 µM value associated with the molecule CN(CCc1ccc(Cl)cc1)C(=O)n1c(=O)n(C)c2nc(Cc3ccccc3)ncc21
# output 102

# input Which measured inhibition at 0.1 µM value corresponds to Cn1c(=O)n(C(=O)N2CCC2)c2nc(CCc3cccc(C4CC4)c3)ncc21 ?
# output 83

# input Endpoint output: inhibition at 0.1 µM of CC(C)c1ncc2c(n1)n(C)c(=O)n2C(=O)N1CCCC1 . Value?
# output 73

# input // inhibition at 0.1 µM lookup, key: COc1ccccc1N1CCN(C(=O)n2c(=O)n(C)c3nc(-c4ccccc4)ncc32)CC1
# output 97

# input Any idea what inhibition at 0.1 µM was measured for CCN(C)C(=O)n1c(=O)n(C)c2nc(C3CC3)ncc21 ?
# output 61

# input Param item = Cn1c(=O)n(C(=O)N2CCCC2)c2cnc(-c3cccc(O)c3)nc21 ; retrieve measured inhibition at 0.1 µM.
# output 88

# input Using the record for Cc1ccc(C)c(CCc2ncc3c(n2)n(C(=O)N(C)C)c(=O)n3C)c1 , report its inhibition at 0.1 µM.
# output 95

Where do these numbers come from? They come from patent US8735406B2.
